Reported values of half-life for individual entries
# Assay Method Text: Stability of test peptides in human plasma (LC/MS/MS, first order half-life)
# Format: in vitro ADME
# Measurement Parameters: human plasma, 37° C., 1st experiment, read-out: Plasma t1/2 (1st exp.) (converted)

| Substance | half-life |
| --- | --- |
| Ac-GAQFSKTAAKGE-NH2 [Ac-peptide 79-NH2] | 158 min |
| H-GAQFSKTAAK-NH2 [peptide 106-NH2] | 18 min |
| H-GAQFSKTAAK-OH [peptide 106, GAQFSKTAAK] | 16.8 min |
| H-GAQASKTAAKGE-OH [peptide 237, GAQASKTAAKGE] | 29.4 min |

Numbers sourced from patent US9598463B2.
